conditions: pH 9.0
observedProperty: logD
# print the numeric value only

# lookup: logD of CC(=O)Nc1ccc([C@@H]2C(C#N)=C(N)Oc3[nH]nc(-c4cc(C)sc4C)c32)cc1
4.26

====

details: pH 5.0
observedProperty: logD
// no unit string in output, number only

Item under review: O=C(Cc1coc2cc3c(cc12)CCC3)O[C@H]1CCCCC1=O . Reported logD?
4.43

Name the reported logD value associated with the molecule C=CCN1C(=S)N(c2ccc(CC)cc2)[C@H]2CS(=O)(=O)C[C@@H]21
2.86

====

Listed here: items and their measured logD.
conditions: pH 5.0
No unit in the answer, only the number.

# annotated cases, reported logD shown
compoundstructurestring=COCCCNC(=S)N1[C@H](C)CCC[C@H]1C number=2.8
compoundstructurestring=CCNC(=O)/C(=C/c1cn(-c2ccccc2)nc1-c1cccs1)NC(=O)c1ccccc1 number=4.64
compoundstructurestring=COc1ccc(C(=O)/C=C/Nc2ccc(Cl)c(C(F)(F)F)c2)cc1OC number=5.31
compoundstructurestring=C[C@H](NC(=O)C1CC1)c1ccccc1 number=1.85
compoundstructurestring=COc1cc2c(cc1OC)[C@@]1(C)N(CC2)C(=O)OC12CCCCC2 number=3.47

Any idea what logD was measured for CCOC(=O)N1CCN(C(=O)c2ccc(N3C(=O)[C@H]4CCCC[C@@H]4C3=O)cc2)CC1 ?
3.74

====

details: pH 10.5
In this section, each of the compounds is paired with its reported logD.

Fill in: logD of COCCOC(=O)C1=C(C)NC2=C(C(=O)CC(c3cccc(OC)c3)C2)C1c1coc2ccc(C)cc2c1=O (centres undefined) is ___
5.23

====

conditions: pH 10.0
observedProperty: logD
// response body must contain only the number

The examples below pair each entry with its known result.
compoundstructurestring=C(=N\n1cnnc1)/c1ccc(-n2nc(-c3ccccc3)cc2-c2ccccc2)cc1 number=5.58
compoundstructurestring=N#CC1=C(N)OC2=C(C(=O)C[C@H](c3ccccc3)C2)[C@H]1c1ccccc1F number=3.07

Recorded logD for C[C@H]1C[C@H](C)CN(C(=O)CSc2nnc(-c3ccccc3)n2C)C1 , please?
3.68

Tell me the measured logD of CC[C@@H]1CCCCN1C(=O)[C@H]1CC(c2cc(Cl)c(OC)cc2OC)=NO1 , please.
4.55

If you can, please state the reported logD value of CCOCCOC(=O)C1=C(C)NC2=C(C(=O)CCC2)[C@@H]1c1ccc(C)cc1 .
3.89

Given NC(=O)c1cc(N2C(=O)[C@H]3CC=CC[C@@H]3C2=O)ccc1N1CCCCC1 , state its recorded logD.
3.68

====

test: method code SF, from DOI: 10.1016/j.ejps.2012.10.019, PMID: 23131797; conditions: pH 5.0
observedProperty: logD
Please state the value as a number alone, without comment.

compoundstructurestring=Cc1ccc(SCC(=O)NCc2cccc(CNC(=O)CSc3ccc(C)cc3)c2)cc1 observedproperty=logD number=5.08
compoundstructurestring=CCOc1nc(C#N)nc(N2CCOCC2)n1 observedproperty=logD number=2.46
compoundstructurestring=c1ccc2c(c1)OCCOCCOCCO2 observedproperty=logD number=1.81

# logD lookup, item COc1ccc(CNC(=O)C2CCCC2)cc1
2.6

What value of logD has been reported for the following molecule? O=[N+]([O-])c1cccc(-c2noc(CC3CCCCC3)n2)c1
5.17

====

test: method code SF, from DOI: 10.1016/j.ejps.2012.10.019, PMID: 23131797; conditions: pH 2.0
logD vs 3: less than gives y; not less than gives n.

Some solved cases for reference:
compoundstructurestring=Cc1[nH]c2ccccc2c1C1=CN2CCS(=O)(=O)N=C2S1 assignedclass=y
compoundstructurestring=O=C(OCc1c(F)cccc1Cl)c1cccc(S(=O)(=O)N2CCCC2)c1 assignedclass=n
compoundstructurestring=Cc1ccc(C(=O)NCCc2ccc3c(c2)OCCO3)cc1[N+](=O)[O-] assignedclass=n

--- query ---
Does Cc1c(NC(=O)CC(c2ccccc2)c2ccccc2)cccc1-n1cnnn1 have logD strictly under 3?
n

====

experiment: method code SF, from DOI: 10.1016/j.ejps.2012.10.019, PMID: 23131797; settings: pH 7.3
Threshold check on logD: at or above 4 gives TRUE, strictly below gives FALSE.

compound=CCOC(=O)c1c(NC(=O)CSc2nnc(C)s2)sc2c1CCCCC2 assignedclass=TRUE
compound=Cn1c(SCC(=O)NC2CCCCCC2)nnc1-c1ccc(Cl)cc1 assignedclass=TRUE

Entry C=C(c1ccc(N(C)C)cc1)c1ccc(N(C)C)cc1 : is its logD no less than 4?
TRUE

Could you verify whether the entry Nn1c(COc2ccccc2)nnc1SC(F)F shows logD of no less than 4?
FALSE

Answer whether logD of C=CCn1c(SCc2ccccc2)nc2ccccc2c1=O is greater than or equal to 4.
TRUE

====

conditions: pH 7.3
Classification field: 1 = logD at or over 4; -1 = logD under 4.

Look over these answered cases.
compound="CC1=NC2=C(C(=O)CCC2)[C@H](c2ccc(Cl)cc2)C1C(=O)OCCc1ccccc1 (stereo partly specified)" assignedclass=1
compound=O=C(c1cccc(S(=O)(=O)N2CCOCC2)c1)N1CCN(c2cccc(Cl)c2)CC1 assignedclass=1

Given CSc1ncc2c(n1)-c1c(SC)sc(C(=O)Nc3ccc(Cl)cc3)c1CC2 , state whether its logD is at least 4.
1

Identify whether the reported logD of the following compound is 4 or greater: Cc1cc(C)nc(-n2nc(C)c3c2NC2=CC(C)(C)CC(=O)[C@H]2[C@@H]3c2ccco2)n1
1

// inclusive: logD at least 4? input: COc1ccc([C@H]2C[C@@H](c3ccc(-c4ccccc4)cc3)Nc3ncnn32)cc1
1

Identify whether the reported logD of the following compound is 4 or greater: CCCCOC(=O)C1=C(C)NC2=C(C(=O)CCC2)[C@H]1c1ccccc1OC
1

Determine whether this compound has logD no lower than 4: CC1(C)[C@@]2(C)CC[C@]1(C(=O)Nc1ccccc1C(F)(F)F)c1nc3ccccc3nc12
1

Reported logD reaches at least 4 for Cc1cc(C)n(-c2ccc(-n3cccc3/C=C(\C#N)S(C)(=O)=O)cc2)n1 ?
1

Say whether COc1ccc([C@H]2C[C@H](C(F)(F)F)n3ncc(C(=O)N(C)Cc4cnn(C)c4C)c3N2)cc1OC shows logD of 4 or more.
1

State whether the measured logD reaches 4, counting equality as reaching it, for CCCn1c2ccccc2c2nnc(SCC(=O)N[C@H](C)c3ccccc3)nc21
1

Determine whether measured logD meets or exceeds 4 for CC(C)[C@@H](Sc1nnc(C(F)(F)F)n1C)C(=O)NC(N)=O
-1

Given the entry CC(C)[C@@H](C(=O)Nc1nc(-c2ccc(S(=O)(=O)N3CCOCC3)cc2)cs1)N1C(=O)c2ccccc2C1=O , answer whether its logD meets or surpasses 4.
1

Hi, just wondering whether CCOc1ccc(Br)cc1[C@H]1C2=C(CC(C)(C)CC2=O)Nc2ncnn21 shows logD of 4 or higher.
-1

Does the reported logD for COc1cccc([C@@H]2C3=C(CCCC3=O)N=C(C)C2C(=O)OC[C@@H]2CCCO2)c1 (stereo partly specified) fall at or above the 4 mark?
-1

Please check the record CCOC(=O)C1=C(N)n2c(s/c(=C\c3ccc(C(=O)OC)cc3)c2=O)=C(C(=O)OC)C1c1ccc(C(=O)OC)cc1 (stereo unspecified) and state if its logD is at or above 4.
1

Does the compound O=C(Nc1ccccc1)[C@H]1CC(=O)N(Cc2ccccc2)/C(=N/c2ccc(F)cc2)S1 have recorded logD that is 4 or more?
1

Quick check, logD >= 4? O=C1C[C@@H](n2nc(-c3ccccc3)n(-c3ccccc3)c2=S)[C@@H]2CO[C@H]1O2
-1

Check if logD >= 4 (inclusive). Item: O=C1C(=O)N(OCc2ccc(Br)cc2)[C@H]2CCCC[C@@H]2N1OCc1ccc(Br)cc1
1

Is logD at least 4? Consider CCOP(=O)(Cc1ccc(CP(=O)(OCC)OCC)o1)OCC
-1

Reported logD reaches at least 4 for CC[C@@H](SC1=Nc2ccccc2C2=N[C@@H](CC(C)C)C(=O)N12)C(=O)Nc1ccc2c(c1)OCO2 ?
1

====

assay: method code SF, from DOI: 10.1016/j.ejps.2012.10.019, PMID: 23131797; settings: pH 5.0
Binary label based on logD with cut-off 4: below gives True, not below gives False.

Worked examples follow.
molecule=COC(=O)c1ccc(OC(=O)c2cc(OC)cc(OC)c2)cc1 assignedclass=False
molecule=CSc1scc(-c2cccs2)c1C#N assignedclass=True
molecule=COc1ccc(N2C3=C(C(=O)CC(C)(C)C3)C(c3ccc4c(c3)OCO4)C3=C2CC(C)(C)CC3=O)cc1 assignedclass=False
molecule=NC(=O)C1CCN(C(=O)c2ccc3c(=O)n(Cc4ccco4)c(SCC(=O)c4ccccc4)nc3c2)CC1 assignedclass=False
molecule=CC(C)NC(=O)COC(=O)c1ccc(S(=O)(=O)N2CCCCCC2)cc1 assignedclass=True

Strictly below 4 in logD? O=C(NC1CC1)c1ccc(COc2c(F)c(F)cc(F)c2F)o1
True

Record CCOC(=O)CSc1nnnn1-c1cccc2ccccc12 : is its logD strictly below 4?
True

Lab note: confirm whether the reported logD for this molecule is below 4, equality not counting. molecule: CCOc1ccccc1OCC(=O)Nc1ccc2ccccc2c1
False

Decide: logD of COc1cc2c(cc1NC(=O)COC(=O)c1cc(OC)c(OC)cc1[N+](=O)[O-])oc1ccccc12 strictly below 4?
False

Given FC(F)(F)c1ccc(-n2cc3ccccc3n2)cc1 , is recorded logD strictly lower than 4?
False

Problem: For the molecule FC(F)(F)c1nc(-c2ccc(-c3noc(C(F)(F)F)n3)cc2)no1 , is logD under 4?
False

Lab note: logD threshold 4. Does this molecule come in strictly under it? CC12CCCC(C(N)=O)(CCC1)C2
True

Field: below-cutoff. Rule: recorded logD strictly less than 4. Subject: Cc1ccc(S(=O)(=O)N(CCO)Cc2ccccc2)cc1
True

Strictly below 4 in logD? CCCCOc1ccc(C(=O)N(CCN2C(=O)c3ccccc3C2=O)c2cccc(OC)c2)cc1
False
